Sourced from patent US11180474B2

Assign log10 IC50 to each entry below.
biological target: human TLR7 (Homo sapiens); test: TLR7 inhibition reporter assay (HEK-Blue cells, SEAP reporter, gardiquimod stimulation); conditions: HEK-Blue cells overexpressing human TLR7, gardiquimod 7.5 μM
Annotation: log10 of IC50, µM basis.

Illustrative cases are given below, each with its answer.
compound	log10 IC50
COc1ccc(-c2[nH]c3ccc(C4CCN(C(=O)CNCCC(C)O)CC4)cc3c2C(C)C)cc1OC (centres unmarked)	-1.82
COc1ccc(-c2[nH]c3ccc(C4CCN(C5CCN(CCCSC)CC5)CC4)cc3c2C)cc1OC	-0.73
COc1ccc(-c2[nH]c3ccc(C4CCN(C(=O)CCc5cccnc5)CC4)cc3c2CC(F)(F)F)cc1OC	-0.38
C#CCCCCC(=O)NCCN1CCC(c2ccc3[nH]c(-c4ccc(OC)c(OC)c4)c(C(C)C)c3c2)CC1	-1.20

Fill in log10 IC50 for each of the 3 compounds listed.
1. COc1ccc(-c2[nH]c3ccc(C4CCN(C5CCN(C)CC5)CC4)cc3c2C)cc1OC
2. COc1ccc(-c2[nH]c3ccc(C4CCN(C5CCN(C6CCC6)CC5)CC4)cc3c2C)cc1OC
3. COc1ccc(-c2[nH]c3ccc(C4CCN(CC(=O)NCCNC(C)=O)CC4)cc3c2CC(F)(F)F)cc1OC

1. -0.03
2. 0.20
3. -1.03

* * *

Assign IC50 to each entry below.
target: human TLR7 (Homo sapiens, UniProt Q9NYK1); assay: TLR7 inhibition reporter assay (HEK-Blue cells, SEAP reporter, gardiquimod stimulation); details: HEK-Blue cells overexpressing human TLR7, gardiquimod 7.5 μM
Sequence (Q9NYK1 27-1049): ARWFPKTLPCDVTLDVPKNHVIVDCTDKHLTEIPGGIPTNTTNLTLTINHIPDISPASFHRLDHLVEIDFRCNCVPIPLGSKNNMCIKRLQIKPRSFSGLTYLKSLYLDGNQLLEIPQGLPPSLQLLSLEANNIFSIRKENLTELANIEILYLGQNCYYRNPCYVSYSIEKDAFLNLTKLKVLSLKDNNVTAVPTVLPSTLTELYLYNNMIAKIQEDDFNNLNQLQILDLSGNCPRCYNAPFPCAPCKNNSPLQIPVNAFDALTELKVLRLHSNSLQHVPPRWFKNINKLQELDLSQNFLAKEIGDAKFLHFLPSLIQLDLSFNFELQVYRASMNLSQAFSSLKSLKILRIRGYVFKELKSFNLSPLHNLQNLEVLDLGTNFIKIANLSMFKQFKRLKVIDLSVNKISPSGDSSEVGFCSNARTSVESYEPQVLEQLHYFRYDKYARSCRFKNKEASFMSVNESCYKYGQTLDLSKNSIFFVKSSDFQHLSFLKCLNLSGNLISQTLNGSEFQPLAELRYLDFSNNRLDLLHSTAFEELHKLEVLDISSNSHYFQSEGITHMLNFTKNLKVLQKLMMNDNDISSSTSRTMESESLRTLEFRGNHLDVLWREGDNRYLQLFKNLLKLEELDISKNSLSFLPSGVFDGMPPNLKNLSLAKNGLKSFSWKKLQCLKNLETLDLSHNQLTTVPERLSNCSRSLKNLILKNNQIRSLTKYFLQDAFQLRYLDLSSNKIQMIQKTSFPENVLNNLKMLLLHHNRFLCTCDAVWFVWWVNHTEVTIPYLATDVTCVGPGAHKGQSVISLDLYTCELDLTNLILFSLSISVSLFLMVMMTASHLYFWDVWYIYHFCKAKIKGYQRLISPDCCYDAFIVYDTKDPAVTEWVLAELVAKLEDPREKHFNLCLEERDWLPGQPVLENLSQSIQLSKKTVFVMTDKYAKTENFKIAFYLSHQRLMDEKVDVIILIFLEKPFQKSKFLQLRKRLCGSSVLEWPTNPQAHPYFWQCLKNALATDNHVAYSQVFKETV
Form entry: enter the amount, then its unit.

Illustrative cases are given below, each with its answer.
molecule	IC50
CCc1c(-c2ccc(OC)c(OC)c2)[nH]c2ccc(C3CCN(C4CCN(Cc5sccc5C)CC4)CC3)cc12	579 nM
COc1ccc(-c2[nH]c3ccc(C4CCN(C5CCCN(CC(C)C)C5)CC4)cc3c2C)cc1OC (stereo not shown) [Example 417]	1180 nM
COc1ccc(-c2[nH]c3ccc(C4CCN(C(=O)CCn5ccc6ccccc65)CC4)cc3c2CC(F)(F)F)cc1OC	3570 nM

Need IC50, item `CNCCN1CCC(c2cc3c(C(C)C)c(-c4ccc(OC)c(OC)c4)[nH]c3cc2C)CC1`
7300 nM

* * *

Assign IC50 to each entry below.
Target: human TLR7 (Homo sapiens, UniProt Q9NYK1)
Construct: host or cells: HEK-Blue cells
Assay: TLR7 inhibition reporter assay (HEK-Blue cells, SEAP reporter, gardiquimod stimulation)
Format: cell-based
Details: HEK-Blue cells overexpressing human TLR7, gardiquimod 7.5 μM
Protocol: TLR7/8/9 Inhibition Reporter Assays Briefly, cells are seeded into Greiner 384 well plates (15000 cells per well for TLR7, 20,000 for TLR8 and 25,000 for TLR9) and then treated with test compounds in DMSO to yield a final dose response concentration range of 0.05 nM-50 μM. […] The percent inhibition is determined as the % reduction in the HEK-Blue signal present in wells treated with agonist plus DMSO alone compared to wells treated with a known inhibitor.

compound	measuredAttribute	result
COc1ccc(-c2[nH]c3ccc(C4CCN(C(=O)CNC56CC7CC(CC(C7)C5)C6)CC4)cc3c2C(C)C)cc1OC [Example 217]	IC50	409 nM
COc1ccc(-c2[nH]c3ccc(C4CCN(C(=O)CCN5CCCCC5)CC4)cc3c2CC(F)(F)F)cc1OC [Example 330]	IC50	57 nM
COc1ccc(-c2[nH]c3ccc(C4CCNC(=O)C4)cc3c2C(C)C)cc1OC (stereo not drawn) [Example 326]	IC50	127 nM
COc1ccc(-c2[nH]c3ccc(C4CCN(C(=O)CN5CCC(N(C)C)CC5)CC4)cc3c2C)cc1OC [Example 407]	IC50	12300 nM

Fill in IC50 for each of the 8 compounds listed.
1. COc1ccc(-c2[nH]c3ccc(C4CCN(C5CCCNC5)CC4)cc3c2C)cc1OC (stereo not drawn) [Example 106]
2. CCc1c(-c2ccc(OC)c(OC)c2)[nH]c2c(F)cc(C3CCNCC3)cc12 [Example 189]
3. COc1ccc(-c2[nH]c3ccc(C4CCN(C(=O)CN[C@H](CO)CC(C)C)CC4)cc3c2C(C)C)cc1OC [Example 231]
4. COc1ccc(-c2[nH]c3ccc(C4CCN(CC(=O)NCCCN(C)C)CC4)cc3c2CC(F)(F)F)cc1OC [Example 382]
5. CCc1c(-c2ccc(OC)c(OC)c2)[nH]c2ccc(C3CCN(C(=O)CNCC#N)CC3)cc12 [Example 161]
6. COc1ccc(-c2[nH]c3ccc(C4CCN(Cc5ccc(-n6ccnc6)cc5)CC4)cc3c2C(C)C)cc1OC [Example 263]
7. COc1ccc(-c2[nH]c3ccc(C4CCN(C(=O)CN5CCC[C@H](C(=O)N6CCN(Cc7ccc(Br)cc7)CC6)C5)CC4)cc3c2C(C)C)cc1OC [Example 294]
8. COc1ccc(-c2[nH]c3ccc(C4CCN(Cc5nccs5)CC4)cc3c2C(C)C)cc1OC [Example 261]

905 nM
430 nM
96 nM
17 nM
1210 nM
82 nM
1200 nM
180 nM

Fill in IC50 for each of the 3 compounds listed.
1. CCc1c(-c2ccc(OC)c(OC)c2)[nH]c2ccc(C3CCN(C(=O)CN4CCN(C(=O)C5CCCO5)CC4)CC3)cc12 (stereo not drawn) [Example 172]
2. COc1ccc(-c2[nH]c3ccc(C4CCN(C(=O)CN5CCC(CO)CC5)CC4)cc3c2C(C)C)cc1OC [Example 243]
3. COc1ccc(-c2[nH]c3ccc(C4CCN(CC(=O)N(C)C)CC4)cc3c2CC(F)F)cc1OC [Example 400]

1: 263 nM; 2: 55 nM; 3: 157 nM
